Tested on: HCT-116 colon
Assay method text: NCI tumour cell line growth inhibition, 48 h; in the data active = GI50 below about 0.43 µM; inactive = the rest
The reply should be one of these categories: Yes for active, No for inactive

Previously resolved entries follow.
# Compound, Subject of test, Class label
measured = [
    ("Cc1nc2nc(C)n(CCN3CCOCC3)c(=O)c2c(-c2cccc([N+](=O)[O-])c2)c1C(=O)CCCCCCCCCCN1CCC(c2ccccc2)(c2ccccc2)CC1", "HCT-116 colon", "No"),
    ("O=C(O)CCC(c1ccccc1)(c1ccccc1)c1ccccc1", "HCT-116 colon", "No"),
    ("O=C1C=C(NCCO)c2nccc3c2c1nc1ccccc13", "HCT-116 colon", "No"),
    ("COc1ccc(Cn2cc(COc3cc(/C=C/C(=O)c4cc(OC)c(OC)c(OC)c4)ccc3OC)nn2)cc1", "HCT-116 colon", "No"),
    ("CC[C@@H](C)/C=C(C)/C=C/C(=O)c1c(O)c(-c2ccc(OC(=O)[C@@]34CC[C@@](C)(C(=O)O3)C4(C)C)cc2)cn(O)c1=O", "HCT-116 colon", "No"),
]

**Query** Answer briefly: the call reported for COc1cccc2c1C(=O)c1c(O)c3c(c(O)c1C2=O)C[C@@](O)(/C(CO)=N/NC(=O)CCCCCN1C(=O)C=CC1=O)C[C@@H]3O[C@H]1C[C@H](N)[C@H](O)[C@H](C)O1 in this assay.
**Result** Yes

**Query** Moving on to the next compound: COC(=O)[C@H](Cc1cn(C)cn1)NC(=O)[C@H](CC(=O)OCc1ccccc1)NC(=O)Nc1cc(C(F)(F)F)cc(C(F)(F)F)c1
**Result** No

---

Tested on: HS 578T breast
Assay method text: NCI tumour cell line growth inhibition, 48 h
Let's look at some compounds and their measured GI50.

# annotated cases, reported GI50 shown
# Compound, Subject of test, Readout label, Result
rows = [
    ("O=C1C=C(NCCO)c2nccc3c2c1nc1ccccc13", "HS 578T breast", "GI50", "25.5 µM"),
    ("COc1cccc2c1C(=O)c1c(O)c3c(c(O)c1C2=O)C[C@@](O)(/C(CO)=N/NC(=O)CCCCCN1C(=O)C=CC1=O)C[C@@H]3O[C@H]1C[C@H](N)[C@H](O)[C@H](C)O1", "HS 578T breast", "GI50", "1.69 µM"),
    ("CC1=CC(=O)N(c2cccc3c(N4C(=O)C=C(C)C4=O)cccc23)C1=O", "HS 578T breast", "GI50", "18.6 µM"),
    ("COc1ccc(OC)c(Nc2nc3nonc3nc2Nc2cccc(Br)c2)c1", "HS 578T breast", "GI50", "0.807 µM"),
    ("C=C1c2nc3ccccc3n2C=C(c2cccc(Cl)c2)N1Cc1ccc(OC)cc1", "HS 578T breast", "GI50", "0.565 µM"),
]

**Query** Return reported GI50; argument: CCn1cc(CNc2ccc(C(=O)Nc3cc4cc(OC)c(OC)cc4c(C)n3)cc2)c(C)n1
**Result** 5.32 µM

**Query** Can you check CC12OC(CC(O)C1O)n1c3ccccc3c3c4c(c5c6ccccc6n2c5c31)C(=O)N(CCN1CCOCC1)C4=O (stereo not drawn) next?
**Result** 1.92 µM

**Query** Could you do the same for COC(=O)[C@]12CC[C@@H](C)[C@H](C)[C@@H]1C1=CC[C@@H]3[C@@]4(C)C(C=O)=C[C@@](C)(CO)[C@@H]4[C@H](O)C[C@@]3(C)[C@]1(C)CC2 , please?
**Result** 4.82 µM

---

System: HOP-62 NSCLC
Assay method text: NCI tumour cell line growth inhibition, 48 h
Readout label: GI50

A selection of reference data follows.
# Molecule, GI50
data = [
    ("COc1cc(-c2nn(-c3ccc(NC(=O)Nc4cc(C(F)(F)F)cc(C(F)(F)F)c4)cc3)cc2-c2ccncc2)ccc1Cl", "1.51 µM"),
    ("NC(=O)c1c(NC(=O)c2cccs2)sc2c1CCC(=O)C2", "3.65 µM"),
    ("O=C(Nc1nc(-c2ccc(Cl)cc2)cs1)c1cc(O)c(O)c(O)c1", "255 µM"),
]

**Query** Looking for the measured GI50 of COc1cc(C(=O)/C=C/c2cc(-c3ccc4c(c3)OCO4)n[nH]2)cc(OC)c1OC , can you help?
**Result** 2.32 µM

**Query** Same thing, different molecule: Cn1c(CCCC(=O)O)nc2cc(N(CCCl)CCCl)ccc21
**Result** > 76.3 µM

**Query** Next molecule: Cc1ccc(/C=N/NC(=O)c2ccccc2Oc2ccccc2)o1
**Result** 70.9 µM

**Query** Can you handle CCN(CC)CCNC(=O)c1cccc2c1-c1ccccc1C2=O next?
**Result** > 100 µM

**Query** Here is the next molecule: CC(=O)[CH-]C(=O)c1ccccc1.CC(=O)[CH-]C(=O)c1ccccc1.Cl.[O-]c1ccnc2ccccc12.[O-]c1ccnc2ccccc12.[Ti+4]
**Result** > 100 µM

**Query** Entry COc1cc2c(cc1OC)C(C(CCCCCC(CCC(C)C)C1NCCc3cc(OC)c(OC)cc31)CCC(C)C)NCC2 (centres undefined) please
**Result** 1.55 µM

---

System: MDA-MB-231 breast
Assay method text: NCI tumour cell line growth inhibition, 48 h
The reader will find reported TGI values listed item by item below.

Check out these entries, answers already filled in.
# Compound, TGI
records = [
    ("COc1ccc2c(c1)C(=Nc1ccc(F)c(Cl)c1)c1c-2c(Nc2ccc(F)c(Cl)c2)nc2ccccc12", "> 61.3 µM"),
    ("Cn1c(=O)c2ccccc2[n+]2c(-c3cccc([N+](=O)[O-])c3)csc12", "> 100 µM"),
    ("C=C1N(S(=O)(=O)c2ccc(C)cc2)C(=O)OCC12CCCC2", "> 100 µM"),
]

**Query** Given COc1ccc(Cc2cc(Cc3ccc(OC)cc3)cc(Cc3ccc(OC)cc3)c2)cc1 , state its recorded TGI.
**Result** > 100 µM

**Query** And the next one, C=C1CN=C(Nc2ccc(Cl)cc2)S1 ?
**Result** > 100 µM

**Query** Another: O=C1C=C(NCCO)c2nccc3c2c1nc1ccccc13
**Result** > 100 µM

**Query** Request: COC(=O)C1C(C(=O)O)C2(c3ccccc3)C(=O)C1(c1ccccc1)C(c1ccccc1)=C2c1ccccc1 (stereo unspecified)
**Result** 38.5 µM

**Query** Now give it for COCn1cc(C2=C(C)C(=O)C(C)=C(C)C2=O)cn1 too.
**Result** 40.8 µM

**Query** Query CC(=O)OCC1(C)C(O)CCC2(C)C1CCC1CC3CC12CCC3(O)CO (stereo unspecified) next
**Result** > 100 µM

**Query** And the next one, COc1ccc(-c2sc(Br)c3c2C(=O)C2OC(=O)NC32)cc1OC (stereo unspecified) ?
**Result** > 100 µM

**Query** Quick one: Clc1cccc(-c2nc3cccc4c3n2Cc2ncccc2-4)c1
**Result** > 100 µM

**Query** What about CNC(=O)ON(C(C)=O)C(=O)NC ?
**Result** 78.4 µM

**Query** What do we get for O=c1[nH]c2c(c(=O)[nH]1)SC(c1ccccc1)C2 (stereo unspecified) ?
**Result** > 100 µM

**Query** Proceed to O=C(Nc1nc(-c2ccc(Cl)cc2)cs1)c1cc(O)c(O)c(O)c1
**Result** 3150 µM

**Query** // next record CC1=CC(=O)N(c2cccc3c(N4C(=O)C=C(C)C4=O)cccc23)C1=O
**Result** 22.5 µM

**Query** Record: CCCCN=NNc1cn(C2OC(CO)C(O)C2O)c(=O)[nH]c1=O (stereo unspecified)
**Result** > 100 µM

**Query** Another: CN(C)[C@@H]1C(=O)C(C(=O)NCNc2nc3n[nH]nc3c(=O)[nH]2)=C(O)[C@@]2(O)C(=O)C3=C(O)c4c(O)cccc4[C@@](C)(O)[C@H]3C[C@@H]12
**Result** > 100 µM

**Query** Would you mind doing COC(=O)c1c[nH]c2cc(OC(C)C)c(OC(C)C)cc2c1=O as well?
**Result** > 100 µM

---

Test system: CCRF-CEM leukemia
Assay method text: NCI tumour cell line growth inhibition, 48 h
Readout label: TGI

Example results:
# Molecule, TGI
records = [
    ("COC(=O)/C=C/CCC#Cc1ccccc1C#CCC/C=C/C(=O)OC", "24.3 µM"),
    ("CC[C@@H](C)/C=C(C)/C=C/C(=O)c1c(O)c(-c2ccc(OC(=O)[C@@]34CC[C@@](C)(C(=O)O3)C4(C)C)cc2)cn(O)c1=O", "> 50 µM"),
]

Then this molecule:
**Query** # TGI lookup, item Nc1nc(SCC(=O)c2ccccc2)c2[nH]cnc2n1
**Result** > 100 µM

// data source = PubChem BioAssay (NCI)
